Target Or Test System: CPP32 (Homo sapiens, UniProt P42574)
Sequence (P42574 29-175 limits assumed, species assumed): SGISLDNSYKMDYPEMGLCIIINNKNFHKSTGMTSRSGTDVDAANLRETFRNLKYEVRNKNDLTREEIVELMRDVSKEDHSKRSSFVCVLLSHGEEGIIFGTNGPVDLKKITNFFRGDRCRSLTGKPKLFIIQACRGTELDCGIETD
Sequence (P42574 176-277 limits assumed, species assumed): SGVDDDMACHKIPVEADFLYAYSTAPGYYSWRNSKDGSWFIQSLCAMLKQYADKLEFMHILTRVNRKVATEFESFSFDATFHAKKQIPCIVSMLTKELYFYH
Method: Dissociation constant Ki and irreversible rate constant k3 for irreversible inhibitors (CPP32)
Type: biochemical
Test Settings: continuous assay 60 min, reaction initiated by adding enzyme to substrate-inhibitor mixture
pKi: −log10 of the molar value.
Outcome label depends on pKi relative to 7: at/above gives 1.0, below gives 0.0.

chemical_structure=CC(C)[C@H](NC(=O)C(=O)Nc1cccc2ccccc12)C(=O)N[C@@H](CC(=O)O)C(=O)COc1c(F)c(F)cc(F)c1F assigned_class=1.0

Q: Can `C[C@H](NC(=O)C(=O)Nc1ccccc1F)C(=O)N[C@@H](CC(=O)O)C(=O)COC(=O)c1c(Cl)cccc1Cl` be said to have pKi at or above 7?
A: 0.0

* * *

Quick reference: MCH-5 k3/Ki of the listed items.
Target Or Test System: UniProtKB Q14790
Sequence (Q14790 217-374 limits assumed, species assumed): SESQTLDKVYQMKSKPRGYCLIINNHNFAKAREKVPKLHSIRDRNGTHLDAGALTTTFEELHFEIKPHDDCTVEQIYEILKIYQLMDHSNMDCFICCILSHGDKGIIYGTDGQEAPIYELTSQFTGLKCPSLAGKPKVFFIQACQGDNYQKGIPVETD
Sequence (Q14790 385-479 limits assumed, species assumed): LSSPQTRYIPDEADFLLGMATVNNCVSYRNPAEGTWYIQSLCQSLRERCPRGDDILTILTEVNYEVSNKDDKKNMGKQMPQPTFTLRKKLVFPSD
Method: Dissociation constant Ki and irreversible rate constant k3 for irreversible inhibitors (Mch5)
Assay type: biochemical
Test Settings: continuous assay 60 min, reaction initiated by adding enzyme to substrate-inhibitor mixture

compound=C[C@H](NC(=O)C(=O)NC1CCCCC1)C(=O)N[C@@H](CC(=O)O)C(=O)COP(=O)(c1ccccc1)c1ccccc1 result="1,790,000 moles^−1 seconds^−1"
compound=CC(C)[C@H](NC(=O)C(=O)Nc1ccccc1Cl)C(=O)N[C@@H](CC(=O)O)C(=O)COc1c(F)c(F)cc(F)c1F result="234,000 moles^−1 seconds^−1"
compound=CC(C)[C@H](NC(=O)C(=O)Nc1ccncc1)C(=O)N[C@@H](CC(=O)O)C(=O)COc1c(F)c(F)cc(F)c1F result="1,140 moles^−1 seconds^−1"

Q: Record lookup: for UniProtKB Q14790, what MCH-5 k3/Ki belongs to C[C@H](NC(=O)C(=O)Nc1ccccc1C(C)(C)C)C(=O)N[C@@H](CC(=O)O)C(=O)COC(=O)c1c(Cl)cccc1Cl [Example 76] ?
A: 30,200 moles^−1 seconds^−1

Q: Same again, this time with `C[C@H](NC(=O)C(=O)Nc1cc(C(C)(C)C)ccc1C(C)(C)C)C(=O)N[C@@H](CC(=O)O)C(=O)COP(=O)(c1ccccc1)c1ccccc1`
A: 1,340,000 moles^−1 seconds^−1

Q: Same again, this time with `CCCCCCCc1ccc(NC(=O)C(=O)N[C@H](C(=O)N[C@@H](CC(=O)O)C(=O)COc2c(F)c(F)cc(F)c2F)C(C)C)cc1`
A: 155,000 moles^−1 seconds^−1

* * *

Quick reference: Ki of the listed items.
Target Or Test System: CPP32 (Homo sapiens, UniProt P42574)
Method: Dissociation constant Ki and irreversible rate constant k3 for irreversible inhibitors (CPP32)
Type: biochemical
Test Settings: continuous assay 60 min, reaction initiated by adding enzyme to substrate-inhibitor mixture
Where a SMILES comes first, the peptide text is derived from it. The star is where a group is joined. Cbz = O=C(OCc1ccccc1)*; CH2F = FC*
Enter your answer as a number in nM; do not include the unit.

Q: What value of Ki has been reported for the following compound? CC(C)[C@H](NC(=O)C(=O)NCc1ccccc1)C(=O)N[C@@H](CC(=O)O)C(=O)COc1c(F)c(F)cc(F)c1F [Example 79]
A: 405

Q: Same again, this time with C[C@H](NC(=O)C(=O)Nc1ccccc1Cl)C(=O)N[C@@H](CC(=O)O)C(=O)COP(=O)(c1ccccc1)c1ccccc1 [Example 41]
A: 35

Q: Same again, this time with CC(NC(=O)C(NC(=O)OCc1ccccc1)C(C)C)C(=O)NC(CC(=O)O)C(=O)CF (stereo not drawn) [refer., Cbz-ValAlaAsp-CH2F, reference compound] (Cbz-Val-Ala-Asp-CH2F; configuration not given here)
A: 820

Q: Same again, this time with C[C@H](NC(=O)C(=O)NCc1cccc2ccccc12)C(=O)N[C@@H](CC(=O)O)C(=O)COC(=O)c1c(Cl)cccc1Cl [Example 34]
A: 43

Q: Same again, this time with C[C@H](NC(=O)C(=O)Nc1cc(C(C)(C)C)ccc1C(C)(C)C)C(=O)N[C@@H](CC(=O)O)C(=O)COC(=O)c1c(Cl)cccc1Cl [Example 60]
A: 58
